In this section, each of the compounds is paired with its reported inhibition.
assay: inhibitors of Sendai virus-induced IRF3 signaling, primary screen, TLR/RLR signaling modifier project, cell-based, Sendai virus stimulus, luciferase, 10K MLSCN set (AID 602276); details: HEK293 RL24 IRF3 luciferase reporter, at 10 µM, hits give high values;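 further: firefly luciferase from ISG56 promoter only with Renilla not read in this screen; 0% = Sendai virus plus DMSO and 100% = medium plus DMSO without virus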
Write the answer as a number in %, unit excluded.

Completed entries (count: 5):
O=C(c1ccco1)N1CCN(CC2CC3C=CC2C3)CC1 (stereo unspecified) | -7.24
COc1cccc(-n2c(SC3CCOC3=O)nc3ccccc3c2=O)c1 (stereo unspecified) | 2.92
O=C(CCN1C(=O)C2C3C=CC(C3)C2C1=O)N1CCN(c2ccccc2Cl)CC1 (stereo unspecified) | 10.7
O=c1c2ccccc2c(/C=N/n2cnnc2)c(O)n1-c1ccccc1 | -3.33
O=C(Nc1ccc(S(=O)(=O)Nc2ccc(Cl)cc2)cc1)C1CCCO1 (stereo unspecified) | 14.5

Lab note: next compound to report on.
Bench note: what inhibition did CC(C)C(NC(=O)OCc1ccccc1)C(=O)OCC(=O)NCc1ccco1 (stereo unspecified) show? 0.314

----------
assay: inhibitors of mutant huntingtin aggregation, primary screen, imaging, exon1htt(103Q)mCFP cells, high-content imaging (AID 483); settings: exon1htt(103Q)mCFP cell line, aggregate imaging, at 2 µM; hits give high values;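 further: compound exposure lasted 3 days before fixation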
In this section, each of the compounds is paired with its reported inhibition of aggregation.
Write the answer as a number in %, unit excluded.

Completed entries (count: 2):
c1ccc(-c2cc(N3CCCCC3)ncn2)cc1 | -3.9
CC1CCC(NC(=O)C2(C)CCC(=O)N2Cc2cccnc2)CC1 (configuration not stated) | 18.3

Bench note: what inhibition of aggregation did `Cc1ccc2nc(NC(=O)CN(C)S(=O)(=O)c3cccc4nsnc34)sc2c1` show? -0.2

Then this compound: `Cc1cccc(-n2c(=O)cc(N3CCN(c4ccc(F)cc4)CC3)[nH]c2=O)c1` 15.8

Then this compound: `Nn1c(SCC(=O)NC2CCCCC2)nnc1C1CC1` 7.4

Then this compound: `O=c1sc(Nc2ccccc2)nc2ccsc12` -0.2

Then this compound: COc1ccc(OCCN2C(=O)NC(C)(c3ccc(C)cc3)C2=O)cc1 (configuration not stated) -4.1

Then this compound: `CCOc1ccc2nc(SCc3ccc(C(=O)OC)o3)[nH]c2c1` 16.9

----------
test: inhibitors of poly I:C-induced TLR3 signaling, primary screen, cell-based, poly I:C stimulus, luciferase, 10K MLSCN set (AID 602277); settings: HEK293-TLR3 RL24 IRF3 luciferase reporter, at 10 µM, hits give high values
QUANTITY KIND: inhibition (%)
Write the answer as a number in %, unit excluded.

Completed entries (count: 5):
O=C(CSc1nnc(CNC(=O)c2cccs2)o1)NCCc1ccccc1 | 16.6
O=C(NCC(=O)N(c1cnc2ccccc2c1)C(C(=O)NC1CCCC1)c1ccncc1)c1ccco1 (stereo unspecified) | 17.8
Cc1ccc(N2CCN(S(=O)(=O)N(C)C)CC2)c(C)c1 | 4.97
CC1=C(C(=O)OC(C)C)C(c2ccccn2)n2ncnc2N1 (stereo unspecified) | 30.5
CCCc1cc(C(=O)Nc2ccccc2SC)no1 | -51.6

Bench note: what inhibition did `CCCOc1cccc(C(=O)Nc2cc(NC(=O)c3ccco3)ccc2OC)c1` show? -15

Then this molecule: `CSC1=N/C(=C\C=C\c2cccs2)C(=O)S1` 28.8

Then this molecule: COCCN(C(=O)c1csnn1)C(C(=O)NC(C)(C)C)c1cccc(OC)c1 (stereo unspecified) 14.6

Then this molecule: `COc1cc(Br)cc(CN2CCN(C/C=C/c3ccccc3)CC2)c1O` -8.7

Then this molecule: `CC(=O)c1ccccc1Oc1nc(CN2CCOCC2)nc2scc(-c3cccs3)c12` 37.7

Then this molecule: `Cn1c(SCCN2CCCCC2)nnc1-c1ccccc1Br` 13.7

----------
In this section, each of the compounds is paired with its reported inhibition.
experiment: inhibitors of poly I:C-induced TLR3 signaling, primary screen, cell-based, poly I:C stimulus, luciferase, 10K MLSCN set (AID 602277); conditions: HEK293-TLR3 RL24 IRF3 luciferase reporter, at 10 µM, hits give high values
Write the answer as a number in %, unit excluded.

Completed entries (count: 8):
CC1C=CC(C)C(C(=O)O)C1C(=O)O (configuration not stated) | 41.3
CCN1CCN(C(CNC(=O)c2ccc3c(c2)OCO3)c2cccnc2)CC1 (configuration not stated) | -1.81
CCOC(=O)/N=C(/NC(=O)Nc1ccc(C(=O)OCC)cc1)OC | 23.9
Cc1nc(N2CCC(C)CC2)c2c(C)c(C(=O)O)sc2n1 | 23.3
O=C(CN1C(=O)c2ccccc2S1(=O)=O)NCc1ccccc1Cl | 22.5
COc1cccc(NC(=O)N(Cc2ccco2)C(C)c2cccs2)c1 (configuration not stated) | 15.1
COc1ccc(CN(C(=O)c2oc3ccccc3c2C)C2CCS(=O)(=O)C2)cc1 (configuration not stated) | 8.82
COCCn1c(C)cc(C(=O)COC(=O)CCN2C(=O)c3ccccc3C2=O)c1C | 4.05

Bench note: what inhibition did `COc1cc(OC)c(NC(=O)c2ccco2)cc1Cl` show? 35

Then this compound: `COC(=O)c1cc(=O)nc2sc(-c3cccs3)nn12` 29.9

Then this compound: `CCc1ccc(CNCc2cccnc2)cc1` 18.6

Then this compound: CCOC(=O)C1=C(CS(=O)(=O)c2ccc(F)c(C)c2)NC(=O)NC1c1ccc(O)c(O)c1 (configuration not stated) 5.18

----------
experiment: inhibitors of Chlamydomonas gravitaxis, primary screen, whole organism, Chlamydomonas reinhardtii, WT vs cilia-less mutant, absorbance, 96-well (AID 463189); conditions: OD600 absorbance, 2 days, at 10 µM, hits give high values;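 further: 0% = wild type cc124 cells in DMSO and 100% = ciliumless bld1 mutant cells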
In this section, each of the molecules is paired with its reported inhibition.
Write the answer as a number in %, unit excluded.

Bench note: what inhibition did `CCCc1nc2n[nH]c(N)c2c2c1CCCC2` show? -1.38

Then this molecule: `Cc1nn2cnc3sc4c(c3c2nc1=O)CCCC4` 19.9

Then this molecule: CN1CC2(C)CN(C(c3ccccc3)c3ccccc3)CC(C)(C1)C2O (stereo unspecified) -0.999

----------
In this section, each of the compounds is paired with its reported inhibition.
assay: inhibitors of E-selectin induction by TNFa, primary screen, imaging, HUVEC, immunofluorescence, MLSMR starter and 10KST1 sets (AID 487); conditions: HUVEC TNFalpha-induced E-selectin immunofluorescence imaging, at 2 µM; hits give high values;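 further: signal is fraction of cell area covered by stained E-selectin grains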
Write the answer as a number in %, unit excluded.

Completed entries (count: 4):
Cc1cc(CC(=O)O)c(C)cc1CC(=O)O | -39.7
COc1ccccc1N1CCN(CC(O)c2ccc3cc[nH]c3c2)CC1 (stereo not drawn) | -43.4
CC12CN3CC(C)(CN(C1)C3c1ccc(Br)cc1O)C2 (stereo not drawn) | -162
CC(=O)c1ccccc1Oc1nc(CN2CCOCC2)nc2scc(-c3cccs3)c12 | -50.4

Bench note: what inhibition did O=C(C1CCCN(S(=O)(=O)c2cnc[nH]2)C1)N1CCN(c2ccc(Cl)cc2)CC1 (stereo not drawn) show? -71.3

Then this compound: CCOCCCNC(=O)C(NC(=O)c1ccccn1)c1ccc(C)cc1 (stereo not drawn) -18.5

Then this compound: `CCSc1nnc(NC(=O)C(C(F)(F)F)C(F)(F)F)s1` -40.7

Then this compound: `Clc1ccc(-n2ncc3c(NCc4ccccn4)ncnc32)cc1` 6.6

Then this compound: `CCNC(=O)c1cc2c(=O)n3cccc(C)c3nc2n(CCc2ccccc2)c1=N` -7.9

Then this compound: COC(=O)C(NC(=O)c1ccco1)(Nc1nc(C)cs1)C(F)(F)F (stereo not drawn) -89.2

Then this compound: `Cc1cccc(NC(=O)c2cc(NC(=O)c3ccco3)ccc2Cl)n1` 19.9

Then this compound: `CSc1cccc(NC(=O)C2CCN(S(=O)(=O)c3ccc(F)cc3)CC2)c1` -69.1

Then this compound: `CCOC(=O)N1CCN(C(=O)CCc2ccc(S(=O)(=O)NCCc3ccccc3)cc2)CC1` -24.7

Then this compound: Cc1ccc(-c2ccc(=O)n(CC(=O)NCCCN3CCCCC3C)n2)cc1 (stereo not drawn) 14.8

Then this compound: CCC(C)Nc1nc(OC)nc(N(C)C#N)n1 (stereo not drawn) -32.5

Then this compound: O=C(O)C1CC(=O)N(Cc2cccs2)C1 (stereo not drawn) -73.2

Then this compound: `C=CCNS(=O)(=O)c1ccc2nsnc2c1` -33.6

Then this compound: `COC(=O)c1ccc(CN(C(C)=O)c2ccccc2)o1` -113

----------
In this section, each of the molecules is paired with its reported inhibition.
assay: inhibitors of TNFa-induced NFkB p65 translocation, primary screen, imaging, HUVEC, MLSMR starter and 10KST1 sets (AID 438); details: HUVEC TNFa-induced p65 nuclear translocation; at 2 µM, hits give high values, 0% TNFa-plus-vehicle, 100% no-TNFa wells;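 further: compound added about 3h40 before a 20 min TNFalpha stimulation; signal is the nuclear over cytoplasmic p65 intensity ratio per well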
Write the answer as a number in %, unit excluded.

Completed entries (count: 2):
NC(=O)NC(c1ccccc1)c1ccccc1F (stereo unspecified) | -4.8
O=C(COC(=O)C12CC3CC(CC(C3)C1)C2)NCc1ccco1 | 3.4

Bench note: what inhibition did `CCOc1cc2[nH]c(=O)n(CCC(=O)NCCc3ccc(OC)c(OC)c3)c(=O)c2cc1OCC` show? -2.1

Then this molecule: `COc1ccc(CCNc2oc(COc3ccc(F)cc3)nc2C#N)cc1` -9.8

Then this molecule: `CN(C)CCCOC(=O)c1ccc(Cl)cc1Cl` 0

Then this molecule: `Cc1cccn2c(=O)c3cc(C(=O)NCc4cccnc4)c(=N)n(C)c3nc12` 7.8

Then this molecule: `Cc1ccc(C(=O)NCCCNCCCNC(=O)c2ccc(C)nc2)cn1` -2.8
